Molecular target: E1-E2-DNA complex (Human papillomavirus 11)
Experiment: E2-dependent E1 DNA binding assay (E1-E2 DNA assay)
Details: E1-E2 DNA assay of Example 11, HPV-11
Procedure: This particular assay determines the ability of a test compound to inhibit the activity (IC50) of HPV-11 DNA replication. More specifically, in the assay described herein, the inhibitory activity of the test compound is evaluated based on its ability to interfere with the E1-E2-DNA origin of replication interaction, thereby inhibiting initiation of viral DNA replication. This assay was modeled on a similar assay for SV40 T Antigen described by McKay (J. Mol. Biol., 1981,145:471). […]
assayReadout: IC50

Check out these entries, answers already filled in.
molecule: O=C(Nc1ccc(N2CCOCC2)cc1)C1C(c2ccc(Br)c(Br)c2)OC2(C(=O)c3ccc(F)cc3C2=O)C1C(=O)O (stereo not drawn) [Compound 1143]
IC50: < 500 nM

molecule: CN(CCN(C)c1ccc([N+](=O)[O-])c2nonc12)C(=O)CNCc1ccc(NC(=O)C2C(c3ccc(Cl)c(Cl)c3)OC3(C(=O)c4ccccc4C3=O)C2C(=O)O)cc1 (stereo not drawn)
IC50: 500 to 5000 nM

molecule: CCCCC(=O)Nc1cc(C2OC3(C(=O)c4ccccc4C3=O)C(C(=O)O)C2C(=O)Nc2ccc(C(C)=O)cc2)ccc1Cl (stereo not drawn)
IC50: 500 to 5000 nM

molecule: Cc1cc2c(cc1F)C(=O)C13OC(c4ccc(Br)c(Br)c4)C(C(=O)Nc4ccc(N5CCOCC5)cc4)C1C(=O)OC23O (single isomer, unassigned)
IC50: < 500 nM

q: Tell me IC50 reported for CC(=O)Nc1ccc(NC(=O)C2C(c3ccc(Br)c(Br)c3)OC3(C(=O)c4ccccc4C3=O)C2C(=O)O)cc1 (stereo not drawn)
a: < 500 nM

q: Provide one value: measured IC50 of Cc1cccc2c1C(=O)C1(OC(c3ccc(Cl)c(Cl)c3)C(C(=O)Nc3ccc4c(c3)OCO4)C1C(=O)O)C2=O (stereo not drawn) [Compound 1041]
a: 500 to 5000 nM

---

molecular target: E1-E2-DNA complex (Human papillomavirus 11); assay: E2-dependent E1 DNA binding assay (E1-E2 DNA assay); conditions: E1-E2 DNA assay of Example 11, HPV-11
pIC50: −log10 of the molar value.
assayReadout: pIC50

Solved entries (count: 4):
molecule: CC(=O)c1ccc(NC(=O)C2C(c3ccc(Cl)c(Cl)c3)OC3(C(=O)c4ccccc4C3=O)C2C(=O)O)cc1 (centres unmarked) [Compound 1021]
pIC50: > 6.30

molecule: O=C(Nc1ccc(OC(F)(F)F)cc1)C1C(c2ccc(Cl)c(Cl)c2)OC2(C(=O)c3ccccc3C2=O)C1C(=O)O (centres unmarked)
pIC50: 5.30 to 6.30

molecule: Cc1cc2c(s1)C1(O)OC(=O)C3C(C(=O)Nc4ccc(N5CCOCC5)cc4)C(c4ccc(Br)c(Br)c4)OC31C2=O (single isomer, unassigned)
pIC50: > 6.30

molecule: Cc1cccc2c1C(=O)C1(OC(c3ccc(Cl)c(Cl)c3)C(C(=O)Nc3ccc4c(c3)OCO4)C1C(=O)O)C2=O (centres unmarked) [Compound 1042]
pIC50: 5.30 to 6.30

q: In one line, give reported pIC50 of the entry O=C1C2C(c3ccc(Cl)cc3)OC3(C(=O)c4ccccc4C3=O)C2C(=O)N1c1cccc(C(F)(F)F)c1 (centres unmarked) .
a: 4.30 to 5.30

q: Provide only the value of recorded pIC50 for O=C(Nc1ccc(OC(F)(F)F)cc1)C1C(c2ccc(Br)c(Br)c2)OC2(C(=O)c3ccccc3C2=O)C1C(=O)O (centres unmarked)
a: 5.30 to 6.30

q: Dear colleague, please send me the reported pIC50 for O=C(Nc1ccccc1OC(F)(F)F)C1C(c2ccc(Cl)c(Cl)c2)OC2(C(=O)c3ccccc3C2=O)C1C(=O)O (centres unmarked) when you can.
a: 5.30 to 6.30

q: Report measured pIC50; entry is O=C(NN1CCOCC1)C1C(c2ccc(Cl)c(Cl)c2)OC2(C(=O)c3ccccc3C2=O)C1C(=O)O (centres unmarked)
a: 5.30 to 6.30

q: Identify measured pIC50 corresponding to CC(=O)c1ccc(NC(=O)C2C(C(C)=Cc3ccccc3)OC3(C(=O)c4ccccc4C3=O)C2C(=O)O)cc1 (racemic)
a: 4.30 to 5.30

q: Read the entry N#Cc1cccc(C2OC3(C(=O)c4ccccc4C3=O)C(C(=O)O)C2C(=O)Nc2ccc3c(c2)OCO3)c1 (centres unmarked) and write its reported pIC50.
a: 4.30 to 5.30

q: Answer with reported pIC50 of O=C(Nc1ccc(N2CCOCC2)cc1)C1C(c2ccc(Br)c(Br)c2)OC2(C(=O)c3ccccc3C2=O)C1C(=O)O (racemic) [Compound 1078]
a: > 6.30

---

target: E1-E2-DNA complex (Human papillomavirus 11); test: E2-dependent E1 DNA binding assay (E1-E2 DNA assay); details: E1-E2 DNA assay of Example 11, HPV-11
assayReadout: IC50

Here is how some compounds turned out for IC50.
compound: Cc1ccc2c(c1)C(=O)C13OC(c4ccc(Br)c(Br)c4)C(C(=O)Nc4ccc(N5CCOCC5)cc4)C1C(=O)OC23O (single isomer, unassigned)
targetEntity: E1-E2-DNA complex (Human papillomavirus 11)
result: < 0.5 µM
--
compound: COc1ccc2c(c1)C(=O)C1(OC(c3ccc(Cl)c(Cl)c3)C(C(=O)Nc3ccc(C(C)=O)cc3)C1C(=O)O)C2=O (centres unmarked) [Compound 1130]
targetEntity: E1-E2-DNA complex (Human papillomavirus 11)
result: 5 to 50 µM
--
compound: CC(=O)c1ccc(NC(=O)C2C(c3ccc(Cl)c(Cl)c3)OC3(C(=O)c4ccc(F)cc4C3=O)C2C(=O)O)cc1 (centres unmarked) [Compound 1107]
targetEntity: E1-E2-DNA complex (Human papillomavirus 11)
result: 0.5 to 5 µM
--
compound: Cc1ccc2c(c1)C(=O)C1(OC(c3ccc(Br)c(Br)c3)C(C(=O)Nc3ccc(-c4csnn4)cc3)C1C(=O)O)C2=O (single isomer, unassigned) [Compound A1010]
targetEntity: E1-E2-DNA complex (Human papillomavirus 11)
result: 0.5 to 5 µM
--
compound: CS(=O)(=O)c1ccc(NC(=O)C2C(c3ccc(Cl)c(Cl)c3)OC3(C(=O)c4ccccc4C3=O)C2C(=O)O)cc1 (centres unmarked)
targetEntity: E1-E2-DNA complex (Human papillomavirus 11)
result: 0.5 to 5 µM

q: Specify measured IC50 for CC(=O)c1ccc(NC(=O)C2C(C=Cc3cccc(Cl)c3Cl)OC3(C(=O)c4ccccc4C3=O)C2C(=O)O)cc1 (centres unmarked) .
a: 0.5 to 5 µM

q: Give me measured IC50, please, for this compound: O=C(Nc1ccc(Br)c(Cl)c1)C1C(c2ccc(Cl)c(Cl)c2)OC2(C(=O)c3ccccc3C2=O)C1C(=O)O (centres unmarked)
a: 0.5 to 5 µM

q: Give the measured IC50 for O=C(CNCc1ccc(N2C(=O)C3C(c4ccc(Cl)c(Cl)c4)OC4(C(=O)c5ccccc5C4=O)C3C2=O)cc1)NCCNc1cccc2c(S(=O)(=O)O)cccc12 (centres unmarked)
a: 5 to 50 µM

q: Determine its reported IC50: Cc1cc(C)cc(NC(=O)C2C(c3ccc(Cl)c(Cl)c3)OC3(C(=O)c4ccccc4C3=O)C2C(=O)O)c1 (centres unmarked)
a: 0.5 to 5 µM

q: For the compound O=C(Nc1ccc2c(c1)OCO2)C1C(c2ccc(Cl)c(Cl)c2)OC2(C(=O)c3cccc(F)c3C2=O)C1C(=O)O (centres unmarked) [Compound 1051] , give its reported IC50.
a: 0.5 to 5 µM

q: For the compound O=C1C2C(c3ccc(Cl)c(Cl)c3)OC3(C(=O)c4ccccc4C3=O)C2C(=O)N1c1ccc(O)cc1 (centres unmarked) , report IC50.
a: < 0.5 µM

q: Return IC50 for the following compound: O=C(Nc1ccc2c(c1)OCO2)C1C(c2cc(Cl)cc(Cl)c2)OC23C(=O)c4ccccc4C2(O)OC(=O)C13 (racemic)
a: 0.5 to 5 µM

q: Give the reported IC50 for this compound. CC(=O)Nc1ccc(NC(=O)C2C(c3ccc(Cl)c(Cl)c3)OC3(C(=O)c4ccccc4C3=O)C2C(=O)O)cc1 (centres unmarked) [Compound 1035]
a: < 0.5 µM

q: Return reported IC50. Input compound: COC(=O)C1C(C(=O)Nc2ccc3c(c2)OCO3)C(c2ccc(Cl)c(Cl)c2)OC12C(=O)c1ccccc1C2=O (racemic)
a: 0.5 to 5 µM

---

Quick reference for pIC50 among some molecules
target: E1-E2-DNA complex (Human papillomavirus 11, UniProt P04015); test: E2-dependent E1 DNA binding assay (E1-E2 DNA assay); conditions: E1-E2 DNA assay of Example 11, HPV-11
Sequence (P04015 whole entry, one chain of several): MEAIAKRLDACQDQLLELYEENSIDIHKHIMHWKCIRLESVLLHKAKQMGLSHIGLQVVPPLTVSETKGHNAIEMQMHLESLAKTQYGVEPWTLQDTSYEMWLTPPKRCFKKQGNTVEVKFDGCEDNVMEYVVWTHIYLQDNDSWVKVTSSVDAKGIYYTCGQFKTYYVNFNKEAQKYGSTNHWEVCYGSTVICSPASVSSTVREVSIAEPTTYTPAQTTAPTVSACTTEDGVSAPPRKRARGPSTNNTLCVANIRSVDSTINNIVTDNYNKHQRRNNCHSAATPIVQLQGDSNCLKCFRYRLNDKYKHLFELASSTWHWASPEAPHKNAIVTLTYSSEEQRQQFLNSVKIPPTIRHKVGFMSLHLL
pIC50: −log10 of the molar value.

Some solved cases for reference:
molecule: O=C(NC1CCCCC1)C1C(c2ccc(Br)c(Br)c2)OC2(C(=O)c3ccccc3C2=O)C1C(=O)O (centres unmarked)
pIC50: > 6.30

molecule: CSc1ccc(NC(=O)C2C(c3ccc(Br)c(Br)c3)OC3(C(=O)c4ccccc4C3=O)C2C(=O)O)cc1 (centres unmarked)
pIC50: > 6.30

molecule: O=C(Nc1ccc2c(c1)OCO2)C1C(c2cccc(Cl)c2)OC2(C(=O)c3ccccc3C2=O)C1C(=O)O (centres unmarked)
pIC50: 5.30 to 6.30

molecule: CC(=O)c1ccc(NC(=O)C2C(c3ccc(Cl)c(Cl)c3)OC3(C(=O)c4ccc(Cl)cc4C3=O)C2C(=O)O)cc1 (centres unmarked) [Compound 1114]
pIC50: 5.30 to 6.30

molecule: O=C(NC1Cc2ccccc2C1)C1C(c2ccc(Cl)c(Cl)c2)OC2(C(=O)c3ccccc3C2=O)C1C(=O)O (centres unmarked)
pIC50: 5.30 to 6.30

q: Please indicate pIC50 recorded for CS(=O)(=O)c1ccc(NC(=O)C2C(c3ccc(Br)c(Br)c3)OC3(C(=O)c4ccccc4C3=O)C2C(=O)O)cc1 (centres unmarked)
a: > 6.30

q: Give pIC50 for the following molecule: O=C(NC1CC1c1ccccc1)C1C(c2ccc(Cl)c(Cl)c2)OC2(C(=O)c3ccccc3C2=O)C1C(=O)O (centres unmarked) [Compound 1066]
a: > 6.30

q: Please report the measured pIC50 for O=C(Nc1ccc2c(c1)OCO2)C1C(c2ccc3c(c2)OCO3)OC2(C(=O)c3ccccc3C2=O)C1C(=O)O (centres unmarked)
a: 4.30 to 5.30

q: Answer with the recorded pIC50 for the molecule listed here: CC(=O)c1ccc(NC(=O)C2C(c3ccc(C(F)(F)F)c(F)c3)OC3(C(=O)c4ccccc4C3=O)C2C(=O)O)cc1 (centres unmarked)
a: 4.30 to 5.30

q: Supply recorded pIC50 for O=C(Nc1ccc(C(F)(F)F)cc1)C1C(c2ccc(Cl)cc2)OC2(C(=O)c3ccccc3C2=O)C1C(=O)O (centres unmarked) here.
a: 4.30 to 5.30

q: Give the measured pIC50 for O=C(Nc1ccc2c(c1)OCO2)C1C(c2cc(Cl)cc(Cl)c2)OC2(C(=O)c3ccccc3C2=O)C1C(=O)O (centres unmarked)
a: 4.30 to 5.30

q: Dear colleague, please send me the reported pIC50 for O=C(NC1Cc2ccccc2C1)C1C(c2ccc(Br)c(Br)c2)OC2(C(=O)c3ccccc3C2=O)C1C(=O)O (centres unmarked) when you can.
a: > 6.30

q: Annotate the molecule CSc1ccc(NC(=O)C2C(c3ccc(F)c(F)c3)OC3(C(=O)c4ccccc4C3=O)C2C(=O)O)cc1 (centres unmarked) with its measured pIC50.
a: 4.30 to 5.30

q: Supply pIC50 value. Item: O=C1C2C(c3ccc(C(F)(F)F)cc3)OC3(C(=O)c4ccccc4C3=O)C2C(=O)N1c1ccc2c(c1)OCO2 (centres unmarked)
a: 4.30 to 5.30
